- Test system: STAPHYLOCOCCUS EPIDERMIDIS 3519
- protocol details: microbe, parasite or virus in culture
- Format: cell-based
- condition context: 24 h
observed property: MIC (µg/mL)
# number only, unit µg/mL dropped from output

Guide cases for MIC, answers given:
smiles_structure=CC[C@H]1OC(=O)[C@H](C)[C@@H](O[C@H]2C[C@@](C)(OC)[C@@H](O)[C@H](C)O2)[C@H](C)[C@@H](O[C@@H]2O[C@H](C)C[C@H](N(C)C)[C@H]2O)[C@](C)(O)C[C@@H](C)[C@@H](N(C)C)[C@H](C)[C@@H](O)[C@H]1CO u=µg/mL reported_measurement=6.2
smiles_structure=CC[C@H]1OC(=O)[C@H](C)[C@@H](O[C@H]2C[C@@](C)(OC)[C@@H](O)[C@H](C)O2)[C@H](C)[C@@H](O[C@@H]2O[C@H](C)C[C@H](N(C)C)[C@H]2O)[C@](C)(O)C[C@@H](C)[C@@H](N(C)C)[C@H](C)[C@@H](O)[C@@]12CO2 u=µg/mL reported_measurement=0.39
smiles_structure=CC[C@H]1OC(=O)[C@H](C)[C@@H](O[C@H]2C[C@@](C)(OC)[C@@H](O)[C@H](C)O2)[C@H](C)[C@@H](O[C@@H]2O[C@H](C)C[C@H](N(C)C)[C@H]2O)[C@](C)(O)C[C@@H](C)[C@@H](N(C)C)[C@H](C)[C@@H](O)[C@@]1(O)CO u=µg/mL reported_measurement=25

Let us move to another entry and its MIC.
Could you tell me which MIC is on file for CC[C@H]1OC(=O)[C@H](C)[C@@H](O[C@H]2C[C@@](C)(OC)[C@@H](O)[C@H](C)O2)[C@H](C)[C@@H](O[C@@H]2O[C@H](C)C[C@H](N(C)C)[C@H]2O)[C@](C)(O)C[C@@H](C)[C@@H](N)[C@H](C)[C@@H](O)[C@@]1(O)CNCc1ccccc1 ? 1.56

* * *

- Test system: STREPTOCOCCUS BOVIS A5169
- protocol details: In vitro antibacterial activity, agar dilution MIC
- Format: cell-based
- condition context: 24 h
Recorded MIC by entry
# number only, unit µg/mL dropped from output

compound="CC[C@H]1OC(=O)[C@H](C)[C@@H](O[C@H]2C[C@@](C)(OC)[C@@H](O)[C@H](C)O2)[C@H](C)[C@@H](O[C@@H]2O[C@H](C)C[C@H](N(C)C)[C@H]2O)[C@](C)(O)C[C@@H](C)[C@@H](N(C)C)[C@H](C)[C@@H](O)[C@H]1CO [Compound 11]" observed_property=MIC reported_measurement=0.78

Could you tell me which MIC is on file for CC[C@H]1OC(=O)[C@H](C)[C@@H](O[C@H]2C[C@@](C)(OC)[C@@H](O)[C@H](C)O2)[C@H](C)[C@@H](O[C@@H]2O[C@H](C)C[C@H](N(C)C)[C@H]2O)[C@](C)(O)C[C@@H](C)[C@@H](N(C)C)[C@H](C)[C@@H](O)[C@@]1(O)CNC [Compound 17] ? 0.78

Could you tell me which MIC is on file for CC[C@H]1OC(=O)[C@H](C)[C@@H](O[C@H]2C[C@@](C)(OC)[C@@H](O)[C@H](C)O2)[C@H](C)[C@@H](O[C@@H]2O[C@H](C)C[C@H](N(C)C)[C@H]2O)[C@](C)(O)C[C@@H](C)[C@@H](N)[C@H](C)[C@@H](O)[C@@]1(O)CNCc1ccccc1 [Compound 14] ? 0.2

Could you tell me which MIC is on file for CC[C@H]1OC(=O)[C@H](C)[C@@H](O[C@H]2C[C@@](C)(OC)[C@@H](O)[C@H](C)O2)[C@H](C)[C@@H](O[C@@H]2O[C@H](C)C[C@H](N(C)C)[C@H]2O)[C@](C)(O)C[C@@H](C)[C@@H](N(C)C)[C@H](C)[C@@H](O)[C@@]1(O)CO [Compound 10] ? 3.1

Could you tell me which MIC is on file for CC[C@H]1OC(=O)[C@H](C)[C@@H](O[C@H]2C[C@@](C)(OC)[C@@H](O)[C@H](C)O2)[C@H](C)[C@@H](O[C@@H]2O[C@H](C)C[C@H](N(C)C)[C@H]2O)[C@](C)(O)C[C@@H](C)[C@@H](N(C)C)[C@H](C)[C@@H](O)[C@@]12CO2 [Compound 8] ? 0.02

* * *

- Test system: ESCHERICHIA COLI DC-2
- protocol details: In vitro antibacterial activity, agar dilution MIC
- Assay type: cell-based
- condition context: E. coli DC-2, BHI agar, 35-37° C., 20 to 24 hours, read-out: MIC
observed property: MIC (µg/mL)
# number only, unit µg/mL dropped from output

Could you tell me which MIC is on file for CC[C@H]1OC(=O)[C@H](C)[C@@H](O[C@H]2C[C@@](C)(OC)[C@@H](O)[C@H](C)O2)[C@H](C)[C@@H](O[C@@H]2O[C@H](C)C[C@H](N(C)C)[C@H]2O)[C@](C)(O)C[C@@H](C)[C@@H](N)[C@H](C)[C@@H](O)[C@@]1(O)CN [Compound 15, (9R)-9,21-diamino-9-deoxo-erythromycin A] ? 3.1

* * *

- Test system: STAPHYLOCOCCUS AUREUS ATCC 6538P
- protocol details: In vitro antibacterial activity, agar dilution MIC
- Format: cell-based
- condition context: ATCC6538P, 24 h
Friendly reminder: MIC below 10 µg/mL is TRUE, at or above is FALSE.

Illustrative cases are given below, each with its answer.
smiles_structure=CC[C@H]1OC(=O)[C@H](C)[C@@H](O[C@H]2C[C@@](C)(OC)[C@@H](O)[C@H](C)O2)[C@H](C)[C@@H](O[C@@H]2O[C@H](C)C[C@H](N(C)C)[C@H]2O)[C@](C)(O)C[C@@H](C)[C@@H](N(C)C)[C@H](C)[C@@H](O)[C@@]1(O)CN(C)C category=TRUE
smiles_structure=CC[C@H]1OC(=O)[C@H](C)[C@@H](O[C@H]2C[C@@](C)(OC)[C@@H](O)[C@H](C)O2)[C@H](C)[C@@H](O[C@@H]2O[C@H](C)C[C@H](N(C)C)[C@H]2O)[C@](C)(O)C[C@@H](C)[C@@H](N)[C@H](C)[C@@H](O)[C@@]1(O)CNCc1ccccc1 category=TRUE
smiles_structure=CC[C@H]1OC(=O)[C@H](C)[C@@H](O[C@H]2C[C@@](C)(OC)[C@@H](O)[C@H](C)O2)[C@H](C)[C@@H](O[C@@H]2O[C@H](C)C[C@H](N(C)C)[C@H]2O)[C@](C)(O)C[C@@H](C)[C@@H](N(C)C)[C@H](C)[C@@H](O)[C@@]1(O)CN(C)Cc1ccccc1 category=FALSE

Identify whether the compound CC[C@H]1OC(=O)[C@H](C)[C@@H](O[C@H]2C[C@@](C)(OC)[C@@H](O)[C@H](C)O2)[C@H](C)[C@@H](O[C@@H]2O[C@H](C)C[C@H](N(C)C)[C@H]2O)[C@](C)(O)C[C@@H](C)[C@@H](N(C)C)[C@H](C)[C@@H](O)[C@H]1CO records MIC below 10 µg/mL. TRUE

Identify whether the compound CC[C@H]1OC(=O)[C@H](C)[C@@H](O[C@H]2C[C@@](C)(OC)[C@@H](O)[C@H](C)O2)[C@H](C)[C@@H](O[C@@H]2O[C@H](C)C[C@H](N(C)C)[C@H]2O)[C@](C)(O)C[C@@H](C)[C@@H](N(C)C)[C@H](C)[C@@H](O)[C@@]12CO2 records MIC below 10 µg/mL. TRUE

Identify whether the compound CC[C@H]1OC(=O)[C@H](C)[C@@H](O[C@H]2C[C@@](C)(OC)[C@@H](O)[C@H](C)O2)[C@H](C)[C@@H](O[C@@H]2O[C@H](C)C[C@H](N(C)C)[C@H]2O)[C@](C)(O)C[C@@H](C)[C@@H](N)[C@H](C)[C@@H](O)[C@@]1(O)CN records MIC below 10 µg/mL. FALSE

Identify whether the compound CC[C@H]1OC(=O)[C@H](C)[C@@H](O[C@H]2C[C@@](C)(OC)[C@@H](O)[C@H](C)O2)[C@H](C)[C@@H](O[C@@H]2O[C@H](C)C[C@H](N(C)C)[C@H]2O)[C@](C)(O)C[C@@H](C)[C@@H](N(C)C)[C@H](C)[C@@H](O)[C@@]1(O)CO records MIC below 10 µg/mL. FALSE

* * *

Recorded MIC by entry
- System: ESCHERICHIA COLI DC-2
- protocol details: In vitro antibacterial activity, agar dilution MIC
- Assay type: cell-based
- condition context: E. coli DC-2, BHI agar, 35-37° C., 20 to 24 hours, read-out: MIC
# number only, unit µg/mL dropped from output

Guide cases for MIC, answers given:
compound="CC[C@H]1OC(=O)[C@H](C)[C@@H](O[C@H]2C[C@@](C)(OC)[C@@H](O)[C@H](C)O2)[C@H](C)[C@@H](O[C@@H]2O[C@H](C)C[C@H](N(C)C)[C@H]2O)[C@](C)(O)C[C@@H](C)[C@@H](N(C)C)[C@H](C)[C@@H](O)[C@@]1(O)CN(C)Cc1ccccc1 [Compound 16]" tested_target="ESCHERICHIA COLI DC-2" reported_measurement=1.56
compound="CC[C@H]1OC(=O)[C@H](C)[C@@H](O[C@H]2C[C@@](C)(OC)[C@@H](O)[C@H](C)O2)[C@H](C)[C@@H](O[C@@H]2O[C@H](C)C[C@H](N(C)C)[C@H]2O)[C@](C)(O)C[C@@H](C)[C@@H](N)[C@H](C)[C@@H](O)[C@@]1(O)CNCc1ccccc1 [Compound 14]" tested_target="ESCHERICHIA COLI DC-2" reported_measurement=100

Let us move to another entry and its MIC.
Under ESCHERICHIA COLI DC-2: MIC value of CC[C@H]1OC(=O)[C@H](C)[C@@H](O[C@H]2C[C@@](C)(OC)[C@@H](O)[C@H](C)O2)[C@H](C)[C@@H](O[C@@H]2O[C@H](C)C[C@H](N(C)C)[C@H]2O)[C@](C)(O)C[C@@H](C)[C@@H](N(C)C)[C@H](C)[C@@H](O)[C@@]12CO2 [Compound 8] ? 50

Sourced from patent US5217960A
